Every entry's value here was drawn from PubChem BioAssay AID1996.

I'd be grateful if you could share measured solubility kinetic for these entries.
conditions: buffer; pH 7.4; 200.0 µM

* Cn1cccc1C(=O)OCC(=O)NCc1ccc2c(c1)OCO2 | > 47.4 µg/mL
* CCOc1ccc(N2C(=O)S/C(=C\c3ccc(O)c(OCC)c3)C2=O)cc1 | < 0.8 µg/mL
* CCn1ccc(C(=O)Nc2ncc(C)s2)n1 | > 35.4 µg/mL

Need solubility kinetic for each of these molecules.
1. Cc1ccc(-c2cc(C(=O)O)c3ccccc3n2)s1
2. O=C(NC(=S)N1CCOCC1)c1ccc(F)cc1
3. CC1CCCCC1NC(=O)COC(=O)c1cc(=O)c2ccccc2o1 (centres undefined)

[out]
1: > 40.4 µg/mL; 2: > 40.2 µg/mL; 3: > 51.5 µg/mL

* * *

details: buffer; pH 7.4; 200.0 µM
I'd be grateful if you could share measured solubility kinetic for these entries.
Give bare numbers, in µg/mL.

• Cc1ccc(S(=O)(=O)NCc2csc(-c3cccs3)n2)cc1 = 0.7

Next compound, solubility kinetic to be filled in.
[in] If you can, please state the reported solubility kinetic value of Cc1ccc(C2(c3noc(CN(C)CC4CCCCO4)n3)CCCC2)cc1 (stereo not drawn) .
[out] 21.2

* * *

conditions: buffer; pH 7.4; 200.0 µM
I'd be grateful if you could share measured solubility kinetic for these entries.

Take a look at these entries with their results.
• COc1cc(Cl)c(C)cc1NC(=O)CCNC(=O)c1ccco1 = > 50.5 µg/mL
• CCc1ccc(NC(=O)NC2CCCCCCC2)cc1 = < 0.3 µg/mL
• O=C(O)c1ccccc1N(Cc1ccccc1)C(=O)COc1ccccc1 = > 54.2 µg/mL
• Cc1ccccc1C(=O)NC(=S)NCc1cccnc1 = > 42.8 µg/mL

Need solubility kinetic for each of these compounds.
1. CCOC(=O)C(=O)N/N=C(/c1ccccc1)c1ccc(OC)cc1
2. CCOc1ccccc1N1C(=O)CC(Sc2nccc(C)n2)C1=O (centres undefined)
3. O=C(Nc1cccnc1)c1ccccc1-c1ccccc1
4. CCn1c(CNC(=O)C2CCCCC2)cc2ccccc21
5. CC1Oc2ccccc2N(CC(=O)N2CCCCC2)C1=O (centres undefined)
6. Cc1ccccc1OCCC(=O)Nc1ccc2c(C)cc(=O)oc2c1

[out]
1. > 49 µg/mL
2. > 51.5 µg/mL
3. > 41.1 µg/mL
4. 0.4 µg/mL
5. > 43.3 µg/mL
6. 4.2 µg/mL

Need solubility kinetic for each of these compounds.
1. CC(=O)NCCc1nc2cc(NC(=O)c3ccc(Cl)cc3)ccc2n1C
2. CCOc1ccccc1NC(=O)c1ccc2nc[nH]c2c1
3. COc1ncnc(OC)c1S(=O)(=O)NCc1ccccc1

[out]
["35.7 µg/mL", "> 42.2 µg/mL", "> 46.4 µg/mL"]

Need solubility kinetic for each of these compounds.
1. Cc1cc(C)c(C#N)c(SCCN2CCOCC2)n1
2. CC(C)(C)OC(=O)N1CCCN(C(=O)c2ccc(Cl)cc2)CC1
3. COc1cc(/C=N/NC(=O)CNC(=O)c2ccncc2)ccc1O
4. COc1cccc(/C=C/C(=O)OCC(=O)NCCc2ccccc2)c1
5. O=C(NCc1cccnc1)C(=O)Nc1nc(-c2ccccc2)cs1
6. O=S(=O)(NCc1ccc(Cl)cc1Cl)c1cccs1

[out]
> 41.6 µg/mL
> 50.8 µg/mL
> 49.2 µg/mL
6.7 µg/mL
4.8 µg/mL
40.6 µg/mL

* * *

I'd be grateful if you could share measured solubility kinetic for these entries.
conditions: buffer; pH 7.4; 200.0 µM

Take a look at these entries with their results.
• CCOc1ccc(CC(=O)NCCc2cnc[nH]2)cc1 = > 41 µg/mL
• CCOC(=O)Cc1cc(=O)n2[nH]c(C)c(-c3ccccc3OC)c2n1 = > 51.2 µg/mL
• CS(=O)(=O)N(CC(=O)N1CCCCCC1)c1cccc(F)c1 = > 49.3 µg/mL
• CCc1nc2sccc2c(=O)[nH]1 = > 27 µg/mL

Next compound, solubility kinetic to be filled in.
[in] If you can, please state the reported solubility kinetic value of Cc1ccc(C(=O)NCC(c2ccco2)N2CCOCC2)cc1 (stereo not given) .
[out] > 47.2 µg/mL

* * *

conditions: buffer; pH 7.4; 200.0 µM
assay endpoint: solubility kinetic

Need solubility kinetic for each of these compounds.
1. O=C(Nc1cccc(C(F)(F)F)c1)c1scc2c1OCCO2
2. CCC(C)[C@H](NC(=O)N1CCC(C)CC1)C(=O)OC (some centres not stated)
3. COc1ccc(NC(=O)CN2CCc3ccccc3C2)cc1OC
4. CN(C(=O)CSc1nnnn1C)C1(C#N)CCCCC1
5. Nc1ccccc1N=c1ssnc1Cl
6. COC(=O)Nc1nn(-c2ccc(OC)cc2)c(=O)c(C#N)c1C
7. COC(=O)C(Cc1c[nH]c2ccccc12)NC(=O)c1cccs1 (configuration not stated)

[out]
1: < 0.7 µg/mL; 2: > 40.6 µg/mL; 3: > 49 µg/mL; 4: > 44.2 µg/mL; 5: > 36.6 µg/mL; 6: > 47.1 µg/mL; 7: > 49.3 µg/mL

* * *

settings: buffer; pH 7.4; 200.0 µM
assay endpoint: solubility kinetic

Take a look at these entries with their results.
- CN1CCN(C(=O)c2cc3cc(Cl)ccc3[nH]2)CC1.Cl: > 47.1 µg/mL
- N#Cc1nccnc1N1CCN(C(=O)Nc2ccccc2)CC1: > 46.3 µg/mL

Need solubility kinetic for each of these compounds.
1. O=c1cc(CO)oc(C(Nc2ccccn2)c2ccccc2Cl)c1O (stereo not given)
2. CSc1ccccc1NC(=O)CCn1c(=O)oc2ccccc21

[out]
1: > 53.8 µg/mL; 2: > 49.3 µg/mL

[in] If you can, please state the reported solubility kinetic value of Cc1ccc(OCC(O)CN2CCOCC2)cc1C.Cl (stereo not given) .
[out] > 45.3 µg/mL

* * *

details: buffer; pH 7.4; 200.0 µM
Non-standard residues stand in square brackets, D forms with d. Residues, ends and D or L forms follow the SMILES beside them. ξ: configuration not given here. *: point of attachment. ξN = NC(=O)CC(N)C(=O)O; Boc = CC(C)(C)OC(=O)*
assay endpoint: solubility kinetic

- COc1ccc(CNc2ccccn2)c(O)c1: > 34.5 µg/mL

Need solubility kinetic for each of these molecules.
1. CCN(CC)C(=O)CSC(Nc1ccc(F)cc1)=C(C#N)C#N
2. CCOC(=O)CNC(=O)C(CC(N)=O)NC(=O)OC(C)(C)C (stereo not drawn) (Boc-[ξN]-Gly-OEt)

[out]
> 49.9 µg/mL
> 47.6 µg/mL

* * *

conditions: buffer; pH 7.4; 200.0 µM
assay endpoint: solubility kinetic

* COn1c(-c2ccccc2)nc2ncccc21 | > 33.8 µg/mL
* O=C(Cc1ccccc1)NCC(=O)N1CCN(Cc2cccc(Cl)c2)CC1 | > 57.9 µg/mL

Next compound, solubility kinetic to be filled in.
[in] If you can, please state the reported solubility kinetic value of COC(=O)[C@H](CCSC)NC(=O)Nc1cc(OC)cc(OC)c1 .
[out] > 51.4 µg/mL
